Test System: TcFPPS (Trypanosoma cruzi farnesyl diphosphate synthase) (Trypanosoma cruzi, UniProt Q8WS26)
Sequence (Q8WS26 64-425): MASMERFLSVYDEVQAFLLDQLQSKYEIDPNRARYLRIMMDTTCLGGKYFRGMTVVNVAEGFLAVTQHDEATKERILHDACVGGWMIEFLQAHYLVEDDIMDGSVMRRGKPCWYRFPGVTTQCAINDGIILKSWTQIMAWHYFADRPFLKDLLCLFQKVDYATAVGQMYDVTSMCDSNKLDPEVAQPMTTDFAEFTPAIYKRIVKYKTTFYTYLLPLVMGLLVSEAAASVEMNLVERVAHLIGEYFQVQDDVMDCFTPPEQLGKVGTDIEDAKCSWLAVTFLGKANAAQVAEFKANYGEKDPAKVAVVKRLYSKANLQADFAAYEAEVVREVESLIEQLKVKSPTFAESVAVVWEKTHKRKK
Measurement Notes: Isothermal titration calorimetry of bisphosphonate binding to TcFPPS
Test Context: ITC, 28 °C, single binding site per monomer
Readout Label: ΔS (cal/mol/K)
All answers are understood in cal/mol/K, so give the number only.

Compound: CCCCCNCC(P(=O)(O)O)P(=O)(O)O
ΔS (cal/mol/K): 44.7
--
Compound: CCCCCCNCC(P(=O)(O)O)P(=O)(O)O
ΔS (cal/mol/K): 55.4
--
Compound: CCCNCC(P(=O)(O)O)P(=O)(O)O
ΔS (cal/mol/K): 56.1

Could you now consider this next molecule?
Input: Entry under review: CCCCCCCNCC(P(=O)(O)O)P(=O)(O)O . Reported ΔS?
Output: 51.9
